# credit: patent US20220381657A1

System: bovine coagulated blood
ASSAY_COMMENT: Decoloring screening: heme eluted from bovine coagulated blood (OD420-OD700)
ASSAY_SETUP: decolorization; OD420 calibrated by OD700
// 700 nm calibrated 420 nm Average lookup, one value per entry
I'd appreciate a reply containing only the number, no unit.

Examples from the recorded data:
COc1ccc(CO)cc1OC : 1.46
NCCCOCCCN : 3.27
CC1(C)CC(N)CC(C)(CN)C1 (stereo not drawn) : 2.08
C[N+](C)(C)Cc1ccccc1.[OH-] [#0387, Benzyltrimethyl- ammonium Hydroxide] : 3.14
NCCCNCCCN : 2.09
CC(C)NCCCN : 1.52
CCCCCCCCCCCCCCCC[N+](C)(C)C.[Cl-] [#1235, Hexadecyltrimethyl- ammonium chloride] : 2.85
NCC1CCCC(CN)C1 (stereo not drawn) : 3.15

Now consider the entry below.
Which 700 nm calibrated 420 nm Average value belongs to `CCCCCCCCCCCC[N+](C)(C)CCCS(=O)(=O)[O-]` ?
2.24
